Source of measurements: patent US20240425475A1

pIC50: −log10 of the molar value.
Below are compounds with their pIC50 as measured on human Cereblon WT GST-tagged protein (Homo sapiens (Human)).
Sequence (Q96SW2 whole entry): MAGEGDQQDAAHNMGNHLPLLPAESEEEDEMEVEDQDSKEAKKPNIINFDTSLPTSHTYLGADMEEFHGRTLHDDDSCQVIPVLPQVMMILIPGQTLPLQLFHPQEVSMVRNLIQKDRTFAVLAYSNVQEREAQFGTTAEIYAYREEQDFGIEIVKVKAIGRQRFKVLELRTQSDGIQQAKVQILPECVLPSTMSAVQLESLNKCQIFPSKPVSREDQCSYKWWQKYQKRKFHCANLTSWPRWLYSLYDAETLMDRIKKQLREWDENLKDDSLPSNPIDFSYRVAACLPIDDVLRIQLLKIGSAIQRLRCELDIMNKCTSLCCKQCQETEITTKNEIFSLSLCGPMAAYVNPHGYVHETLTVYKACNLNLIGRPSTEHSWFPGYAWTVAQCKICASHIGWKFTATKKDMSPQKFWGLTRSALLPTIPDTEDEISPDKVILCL
assay_readout: pIC50

Please review the entries below; each comes with its answer.
Cc1nc2cccc(CCCCCNC34CC5CC(CC(C5)C3)C4)c2c(=O)n1C1CCC(=O)NC1=O (stereo not shown) : 7.30
Cc1nc2cccc(NCCCNC3C4CC5CC(C4)CC3C5)c2c(=O)n1C1CCC(=O)NC1=O (stereo not shown) : 6.15

a = Cc1nc2cccc(NCCCCCCNC34CC5CC(CC3C5)C4)c2c(=O)n1C1CCC(=O)NC1=O (stereo not shown)
b = Cc1nc2cccc(NCCCCCCCNC34CC5CC(CC(C5)C3)C4)c2c(=O)n1C1CCC(=O)NC1=O (stereo not shown)
Task: Which record would sort first by descending pIC50, a or b ? Provide the label of your selected option as the answer.
Output: a

---

- study_system: human Cereblon WT GST-tagged protein (Homo sapiens (Human))
pIC50: −log10 of the molar value.
assay_readout: pIC50

Cc1nc2cccc(NCCCCCCCN3CC4CC(C3)O4)c2c(=O)n1C1CCC(=O)NC1=O (stereo not drawn) [GT-02621] : 5.98
Cc1nc2cccc(NCCCCCCCN[C@@]34CC5CC(C)(C[C@@](C)(C5)C3)C4)c2c(=O)n1C1CCC(=O)NC1=O (stereo partly drawn) [GT-02767] : 5.98
Cc1nc2cccc(NCCCCCCCN3CCC(N4CCOCC4)CC3)c2c(=O)n1C1CCC(=O)NC1=O (stereo not drawn) [GT-02622] : 5.61
Cc1nc2cccc(CCCCCCCCN3CCC(N4CCN(C)CC4)CC3)c2c(=O)n1C1CCC(=O)NC1=O (stereo not drawn) [GT-02799] : 5.61

I = Cc1nc2cccc(C#CCCCCCCN3CCN(C)CC3)c2c(=O)n1C1CCC(=O)NC1=O (stereo not drawn) [GT-02645]
II = Cc1nc2cccc(CCCCCCCCNC34CC5CC(CC(C5)C3)C4)c2c(=O)n1C1CCC(=O)NC1=O (stereo not drawn) [GT-02797]
Task: Hi there, can you help? I need to know whether I or II has lower measured pIC50. Give the chosen item's label as your response.
Output: I
(I: 5.55, II: 6.74)

---

- System: Human dexamethasone-resistant multiple myeloma cell line: MM.1R
- test_protocol: Half inhibitory concentration (IC50) against tumor cells, CCK-8 cell viability
- Format: cell-based
- condition_description: MM.1R cells, 72 h treatment
- Method: The tumor cells used herein were cultured in a cell culture medium listed in table 2 at 37° C. in an incubator with 5% CO2. Prior to experimentation, all cells used were correctly identified by STR profiling, and tested negative for mycoplasma through routine screenings. [table] […] After the cells were treated with the compounds of the present disclosure for a period of time, cell viability was measured according to the instructions provided with the CCK-8 kit. […]
pIC50: −log10 of the molar value.
assay_readout: pIC50

Answered cases to consult:
Cc1nc2cccc(N)c2c(=O)n1C1CCC(=O)NC1=O (stereo not shown) [CC-122, Avadomide, reference compound] : 6.33
Cc1nc2cccc(SCCCN3CCN(CCC45CC6CC(CC(C6)C4)C5)CC3)c2c(=O)n1C1CCC(=O)NC1=O (stereo not shown) [GT-03306] : 7.90

1 = Cc1nc2cccc(NCCN3CCN(CCC45CC6CC(CC(C6)C4)C5)CC3)c2c(=O)n1C1CCC(=O)NC1=O (stereo not shown) [GT-03301]
2 = Cc1cc2cccc(NCCN3CCN(C(c4ccc(F)cc4)c4ccc(F)cc4)CC3)c2c(=O)n1C1CCC(=O)NC1=O (stereo not shown) [GT-03388]
Task: Of 1 and 2 , which one carries the higher reported pIC50? Return value: the label identifying the chosen record.
Output: 1
(1: 7.48, 2: 6.45)

A = Cc1nc2cccc(SCCCN3CCN(C(c4ccc(Cl)cc4)c4ccc(Cl)cc4)CC3)c2c(=O)n1C1CCC(=O)NC1=O (stereo not shown) [GT-03697]
B = Cc1nc2cccc(NCCCCCCCNC34CC5CC(CC3C5)C4)c2c(=O)n1C1CCC(=O)NC1=O (stereo not shown) [GT-02495]
Task: For A and B , which recorded pIC50 is lower? Identify your selection by its label.
Output: A

---

- Tested on: Human diffuse large B-cell lymphoma cell line: TMD8
- test_protocol: Half inhibitory concentration (IC50) against tumor cells, CCK-8 cell viability
- Assay type: cell-based
- condition_description: 96 h treatment
- Procedure: The tumor cells used herein were cultured in a cell culture medium listed in table 2 at 37° C. in an incubator with 5% CO2. Prior to experimentation, all cells used were correctly identified by STR profiling, and tested negative for mycoplasma through routine screenings. [table] […] After the cells were treated with the compounds of the present disclosure for a period of time, cell viability was measured according to the instructions provided with the CCK-8 kit. […]
pIC50: −log10 of the molar value.
assay_readout: pIC50

Cc1nc2cccc(NCCN3CCN(CCC45CC6CC(CC(C6)C4)C5)CC3)c2c(=O)n1C1CCC(=O)NC1=O (centres unmarked) [GT-03301] : 6.73
Cc1nc2cccc(NCCCCCCCN3CC4CC4C3)c2c(=O)n1C1CCC(=O)NC1=O (centres unmarked) [GT-02772] : 6.35
Cc1nc2cccc(NCCCCCNC3C4CC5CC(C4)CC3C5)c2c(=O)n1C1CCC(=O)NC1=O (centres unmarked) [GT-02393] : 6.34
Cc1nc2cccc(NCCCCCNC(=O)C34CC5CC(CC(C5)C3)C4)c2c(=O)n1C1CCC(=O)NC1=O (centres unmarked) [GT-02323] : 6.19
Cc1nc2cccc(NCCCCCCNC34CC5CC(CC(C5)C3)C4)c2c(=O)n1C1CCC(=O)NC1=O (centres unmarked) [GT-02235] : 6.84
Cc1nc2cccc(NCCCCCCCNC34CC5CC(CC3C5)C4)c2c(=O)n1C1CCC(=O)NC1=O (centres unmarked) [GT-02495] : 7.67

P = Cc1nc2cccc(NCCCCCCNC34CC5CC(CC3C5)C4)c2c(=O)n1C1CCC(=O)NC1=O (centres unmarked) [GT-02494]
Q = Cc1nc2cccc(NCCOCCOCCNC34CC5CC(CC(C5)C3)C4)c2c(=O)n1C1CCC(=O)NC1=O (centres unmarked) [GT-02279]
Task: Choose between P and Q : whose measured pIC50 value is numerically larger? Reply with the label of the item you choose.
Output: P
(P: 6.73, Q: 6.36)

---

- Tested on: Human B-lymphoma cell: Ramos
- test_protocol: Half inhibitory concentration (IC50) against tumor cells, CCK-8 cell viability
- Assay type: cell-based
- condition_description: 96 h treatment
assay_readout: IC50 (nM)

Solved cases below.
Cc1nc2cccc(NCCN3CCN(CCC45CC6CC(CC(C6)C4)C5)CC3)c2c(=O)n1C1CCC(=O)NC1=O (stereo not drawn) : 165
Cc1nc2cccc(SCCCN3CCN(CCC45CC6CC(CC(C6)C4)C5)CC3)c2c(=O)n1C1CCC(=O)NC1=O (stereo not drawn) : 89.3
Cc1nc2cccc(SCCCN3CCN(CC45CC6CC(CC(C6)C4)C5)CC3)c2c(=O)n1C1CCC(=O)NC1=O (stereo not drawn) : 398
Cc1nc2cccc(SCCCN3CCN(C(c4ccc(Cl)cc4)c4ccc(Cl)cc4)CC3)c2c(=O)n1C1CCC(=O)NC1=O (stereo not drawn) : 652

I = Cc1nc2cccc(SCCCN3CCN(C(c4ccc(F)cc4)c4ccc(F)cc4)CC3)c2c(=O)n1C1CCC(=O)NC1=O (stereo not drawn)
II = Cc1nc2cccc(N)c2c(=O)n1C1CCC(=O)NC1=O (stereo not drawn) [CC-122, Avadomide, reference compound]
Task: Looking at I and II , which one comes out lower in IC50 terms? Choose, then provide that item's label.
Output: I
(I: 490 nM, II: 1330 nM)
